molecular target: CHEK2 (human) (UniProt O96017); assay: radiometric filter-binding kinase assay; conditions: compound 0.1 µM
Sequence (O96017 whole entry, looked up): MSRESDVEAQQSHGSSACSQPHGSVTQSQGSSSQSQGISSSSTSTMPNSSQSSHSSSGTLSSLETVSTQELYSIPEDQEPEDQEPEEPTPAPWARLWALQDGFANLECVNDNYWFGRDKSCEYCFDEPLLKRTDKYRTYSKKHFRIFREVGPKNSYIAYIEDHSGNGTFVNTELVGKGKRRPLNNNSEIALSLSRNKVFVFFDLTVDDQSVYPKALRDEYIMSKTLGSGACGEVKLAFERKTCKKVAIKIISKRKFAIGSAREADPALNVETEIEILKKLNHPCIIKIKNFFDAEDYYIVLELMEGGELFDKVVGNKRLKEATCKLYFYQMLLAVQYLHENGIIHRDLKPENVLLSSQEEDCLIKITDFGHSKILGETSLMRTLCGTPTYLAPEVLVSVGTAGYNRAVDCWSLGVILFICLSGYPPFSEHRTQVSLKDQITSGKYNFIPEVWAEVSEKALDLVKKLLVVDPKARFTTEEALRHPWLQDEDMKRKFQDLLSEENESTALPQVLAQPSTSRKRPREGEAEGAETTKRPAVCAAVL
property_name: residual activity (%)
Give just the numeric value; % need not be written.

Query: Give residual activity for the following compound: Cn1c(=O)c2c(ncn2C)n(C)c1=O
Result: 86

Query: Please list residual activity recorded for the compound COc1ccc(N(C(=O)Nc2c(C)cccc2C)c2cc(Nc3ccc(N4CCN(C)CC4)cc3)ncn2)c(OC)c1
Result: 75

Query: Please look at this compound and report its residual activity: O=C(O)c1ccc(-c2c[nH]c3ncc(-c4ccccc4)cc23)cc1C1CCCC1
Result: 83

Query: Please give measured residual activity of the following entry: C/C(=C1/C(=O)Nc2ccc(NC(N)=O)cc21)c1ccc[nH]1
Result: 0

Query: Please supply the value of reported residual activity for the item O=C(Nc1ccccc1-c1cn2c(CN3CCNCC3)csc2n1)c1cnc2ccccc2n1
Result: 85

Query: Identify residual activity associated with the compound c1ccc2c(-c3cnn4cc(-c5ccc(N6CCNCC6)cc5)cnc34)ccnc2c1
Result: 99

Query: Look up and state reported residual activity for NC(=O)c1cc(-c2ccnc(NC3CCCCC3)c2)nc(N2CCNCC2)c1
Result: 102

Query: Provide residual activity value for the following compound: CC1=C(CO)C(=O)O[C@@H]([C@@H](C)[C@H]2CC[C@H]3[C@@H]4C[C@H]5O[C@]56[C@@H](O)C=CC(=O)[C@]6(C)C4CC[C@]23C)C1 (some centres undefined)
Result: 130

Query: Look up and report measured residual activity for this entry: NC(=O)Nc1ccc2c(c1)/C(=C/c1cc(-c3cccnc3)c[nH]1)C(=O)N2
Result: -1

Query: Please look at this compound and report its residual activity: CCCCCc1ccc(/C=C/[C@H](O)[C@@H](CO)NC)cc1
Result: 92

Query: Given the compound CNC(=O)C1[C@H]2O[C@@](C)([C@@H]1N)n1c3ccccc3c3c4c(c5c6ccccc6n2c5c31)C(=O)NC4 (some centres undefined) , write its reported residual activity.
Result: 5

Query: Please indicate residual activity recorded for O=C(NCCCNc1nc(Nc2cccc(CN3CCOCC3)c2)ncc1C1CC1)C1CCC1
Result: 105

Query: Complete the entry with residual activity for NC(=O)c1cc2c(-c3cccc(-c4ccccc4)c3)cnc(N)c2s1
Result: 104

Query: Input COc1ccc2c(c1)c1c3c(c4c5ccccc5n(C)c4c1n2CC(O)CN(C)C)C(=O)NC3=O (centres undefined) , output reported residual activity.
Result: 57

Query: Recall and state the measured residual activity for O=C(Nc1nc2cc(C(F)(F)F)cc(NC3CC3)n2n1)c1cccnc1 .
Result: 114

Query: Read off the recorded residual activity for NC1(c2ccc(-c3nc4ccn5c(=O)[nH]nc5c4cc3-c3ccccc3)cc2)CCC1
Result: 122

Query: Using the record for COc1ccc(-n2ncc3cnc(Nc4cc(OC)c(OC)c(OCCCN5CCN(C)CC5)c4)nc32)cc1 , state its measured residual activity.
Result: 48

Query: Give the reported residual activity for this compound. Cc1ccc(-c2ccc3c(ccc4sc5c(c43)NC[C@@H](C)NC5=O)n2)cn1
Result: 112

Query: Give residual activity for C=CC(=O)N1CCC[C@@H](n2nc(-c3ccc(Oc4ccccc4)cc3)c3c(N)ncnc32)C1
Result: 92

====

target: PTK6 (human); experiment: radiometric filter-binding kinase assay; details: compound 10.0 µM
I'd appreciate it if you could supply residual activity values for the items below.
State just the number; it will be interpreted in %.

Query: Please give measured residual activity of the following entry: CCNc1nc(Nc2cc(F)c(C(=O)N3CCOCC3)cc2OC)ncc1C(F)(F)F
Result: 15

Query: Tell me its residual activity given CCOC(=O)c1ccc(N2NC(=O)/C(=C/c3ccc([N+](=O)[O-])o3)C2=O)cc1 as the entry.
Result: 79

Query: Output measured residual activity for this item: NCC(=O)Nc1ccc(-n2nc(C(F)(F)F)cc2-c2ccc3c(ccc4ccccc43)c2)cc1
Result: 91

Query: Complete the entry with residual activity for CCCCCc1ccc(/C=C/[C@H](O)[C@@H](CO)NC)cc1
Result: 104

Query: For the compound O=S(=O)(c1ccc(F)c2nonc12)N1CCN(c2ncc(C(F)(F)F)cc2Cl)CC1 , give its measured residual activity value.
Result: 101

Query: Give the reported value of residual activity for this record: Cc1ccc(-c2ccc3c(ccc4sc5c(c43)NC[C@@H](C)NC5=O)n2)cn1
Result: 92

Query: Provide only the value of recorded residual activity for COC(=O)/C=C/C(=O)OC
Result: 102

Query: Tell us which residual activity value is on record for c1ccc2c(-c3cnn4cc(-c5ccc(N6CCNCC6)cc5)cnc34)ccnc2c1
Result: 5

Query: Look up and state reported residual activity for Nc1cccc2c1CN(C1CCC(=O)NC1=O)C2=O (stereo not drawn)
Result: 114

Query: Fill in residual activity for record O=C(NOCC(O)CO)c1ccc(F)c(F)c1Nc1ccc(I)cc1Cl (stereo not drawn)
Result: 110

Query: Consider the compound CCn1c(-c2nonc2N)nc2cncc(CNC3CCNCC3)c21 . State its measured residual activity.
Result: 91

Query: Specify residual activity for Cc1ccc(=O)n(-c2ccccc2)c1 and stop.
Result: 92

Query: Return reported residual activity. Input compound: O=C(N[C@@H](COc1ccc2[nH]c(=O)[nH]c2c1)c1ccccc1)c1cccn(Cc2ccc(F)c(F)c2)c1=O
Result: 119

====

Give measured residual activity for each item. Keep answers brief.
target: ULK1 (human) (UniProt O75385); assay: radiometric filter-binding kinase assay; details: compound 1.0 µM
Sequence (O75385 whole entry, looked up): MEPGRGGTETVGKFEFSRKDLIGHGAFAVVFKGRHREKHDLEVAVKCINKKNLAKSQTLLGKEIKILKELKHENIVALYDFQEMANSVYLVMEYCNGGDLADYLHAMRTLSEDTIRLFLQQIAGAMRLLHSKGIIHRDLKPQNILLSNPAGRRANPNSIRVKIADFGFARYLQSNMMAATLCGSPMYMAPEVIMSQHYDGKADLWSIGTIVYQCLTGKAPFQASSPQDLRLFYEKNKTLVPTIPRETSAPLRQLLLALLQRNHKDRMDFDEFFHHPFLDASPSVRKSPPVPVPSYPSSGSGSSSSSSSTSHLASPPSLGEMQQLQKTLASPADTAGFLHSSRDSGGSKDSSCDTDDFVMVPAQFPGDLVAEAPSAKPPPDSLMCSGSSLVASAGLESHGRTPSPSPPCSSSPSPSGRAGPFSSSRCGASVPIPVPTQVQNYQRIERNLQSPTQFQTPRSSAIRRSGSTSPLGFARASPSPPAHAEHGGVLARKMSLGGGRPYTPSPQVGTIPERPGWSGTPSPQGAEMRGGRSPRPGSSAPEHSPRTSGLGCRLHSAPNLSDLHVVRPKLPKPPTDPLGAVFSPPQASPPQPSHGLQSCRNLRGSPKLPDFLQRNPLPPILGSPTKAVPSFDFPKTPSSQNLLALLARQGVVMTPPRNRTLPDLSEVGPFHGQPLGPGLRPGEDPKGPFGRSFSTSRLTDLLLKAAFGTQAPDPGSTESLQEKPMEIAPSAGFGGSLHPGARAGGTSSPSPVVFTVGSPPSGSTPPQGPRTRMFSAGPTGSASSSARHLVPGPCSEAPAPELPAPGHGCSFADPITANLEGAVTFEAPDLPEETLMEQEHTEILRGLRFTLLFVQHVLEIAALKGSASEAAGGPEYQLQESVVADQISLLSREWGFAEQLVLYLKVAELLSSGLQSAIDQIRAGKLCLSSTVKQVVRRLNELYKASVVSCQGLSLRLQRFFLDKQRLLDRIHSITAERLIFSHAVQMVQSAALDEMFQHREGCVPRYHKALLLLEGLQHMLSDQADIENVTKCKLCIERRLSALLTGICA
API: value field is a number in %; no unit string.

Query: Supply measured residual activity of CCn1c(-c2nonc2N)nc2cncc(CNC3CCNCC3)c21 in your reply.
Result: 74

Query: Kindly indicate its recorded residual activity. Item: C=C1C(=O)OC2C1CC/C(C)=C/CCC1(C)OC21 (centres undefined)
Result: 104

Query: // Input: NCC(=O)Nc1ccc(-n2nc(C(F)(F)F)cc2-c2ccc3c(ccc4ccccc43)c2)cc1 . Output its residual activity only.
Result: 86

Query: Specify reported residual activity for the compound shown: COc1cc(C(=O)N2CCOCC2)c(F)cc1Nc1ncc(C(F)(F)F)c(NC2CC2)n1
Result: 98

====

target: RPS6KA5 KD1 KD2 (human) (UniProt O75582); experiment: radiometric filter-binding kinase assay; details: compound 1.0 µM
Sequence (O75582 whole entry, looked up): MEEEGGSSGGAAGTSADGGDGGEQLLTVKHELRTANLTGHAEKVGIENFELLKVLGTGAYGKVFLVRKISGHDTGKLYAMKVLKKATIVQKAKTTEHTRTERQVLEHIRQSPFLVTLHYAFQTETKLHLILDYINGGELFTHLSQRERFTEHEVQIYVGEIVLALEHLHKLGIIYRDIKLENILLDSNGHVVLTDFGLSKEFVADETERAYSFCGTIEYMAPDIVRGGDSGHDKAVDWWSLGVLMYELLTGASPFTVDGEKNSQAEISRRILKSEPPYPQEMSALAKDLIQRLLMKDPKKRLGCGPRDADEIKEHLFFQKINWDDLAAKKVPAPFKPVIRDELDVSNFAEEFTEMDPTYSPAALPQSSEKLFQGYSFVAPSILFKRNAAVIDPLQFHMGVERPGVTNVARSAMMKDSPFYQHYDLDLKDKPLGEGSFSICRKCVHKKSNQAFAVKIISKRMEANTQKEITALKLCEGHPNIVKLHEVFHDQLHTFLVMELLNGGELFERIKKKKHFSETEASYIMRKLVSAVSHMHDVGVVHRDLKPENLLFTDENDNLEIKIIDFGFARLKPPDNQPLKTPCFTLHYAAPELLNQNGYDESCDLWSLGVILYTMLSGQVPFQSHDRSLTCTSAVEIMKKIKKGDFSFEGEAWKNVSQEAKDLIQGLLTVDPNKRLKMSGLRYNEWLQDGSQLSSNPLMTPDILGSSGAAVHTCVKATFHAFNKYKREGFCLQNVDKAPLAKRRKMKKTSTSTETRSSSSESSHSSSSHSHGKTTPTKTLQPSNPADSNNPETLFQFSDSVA
Please provide measured residual activity for the entries that follow.
The response must be a number in % with no trailing unit.

Query: Check the records and state residual activity for COc1cc2ncn(-c3cc(OCc4ccccc4S(C)(=O)=O)c(C#N)s3)c2cc1OC
Result: 78

Query: Please list residual activity recorded for the compound O=C(N[C@@H](COc1ccc2[nH]c(=O)[nH]c2c1)c1ccccc1)c1cccn(Cc2ccc(F)c(F)c2)c1=O
Result: 104

Query: Supply reported residual activity belonging to this compound: O=C(Nc1nc2cc(C(F)(F)F)cc(NC3CC3)n2n1)c1cccnc1
Result: 95

Query: Give the value of residual activity reported for the following: CC1=C(CO)C(=O)O[C@@H]([C@@H](C)[C@H]2CC[C@H]3[C@@H]4C[C@H]5O[C@]56[C@@H](O)C=CC(=O)[C@]6(C)C4CC[C@]23C)C1 (stereo partly drawn)
Result: 101

Query: Identify the reported residual activity for the following entry. COc1ccc(-n2ncc3cnc(Nc4cc(OC)c(OC)c(OCCCN5CCN(C)CC5)c4)nc32)cc1
Result: 34

Query: Given CCn1c(-c2nonc2N)nc2cncc(CNC3CCNCC3)c21 , respond with its residual activity.
Result: 5

Query: Give the reported value of residual activity for this record: NC1(c2ccc(-c3nc4ccn5c(=O)[nH]nc5c4cc3-c3ccccc3)cc2)CCC1
Result: 90

Query: Give the measured residual activity for Cn1nc(Nc2ccc(F)cc2)c2c(N)ncnc21
Result: 97

Query: Complete the entry with residual activity for Cc1cccc(Nc2nn(C)c3ncnc(N)c23)c1
Result: 92

Query: Give the reported value of residual activity for this record: O=C(O)c1ccc(-c2c[nH]c3ncc(-c4ccccc4)cc23)cc1C1CCCC1
Result: 103

Query: Determine from records and report residual activity for O=C(NOCC(O)CO)c1ccc(F)c(F)c1Nc1ccc(I)cc1Cl (stereo not drawn)
Result: 98

Query: Could you please provide reported residual activity for CCc1cncnc1N1CCN(Cc2nc3cc(C(F)(F)F)ccc3[nH]2)CC1 ? Thanks!
Result: 34

Query: Entry NC(=O)c1cc(-c2ccnc(NC3CCCCC3)c2)nc(N2CCNCC2)c1 needs its residual activity filled in; supply it.
Result: 109

Query: Determine from records and report residual activity for Oc1ccc(/C=C/c2cc(O)cc(O)c2)cc1
Result: 80

Query: Please give measured residual activity of the following entry: C=C1C(=O)OC2C1CC/C(C)=C/CCC1(C)OC21 (stereo not drawn)
Result: 110

Query: # return recorded residual activity for input NC(=O)c1c(NC(=O)C2CC2)sc2c1CCCC2
Result: 108

Query: Give the measured residual activity for NC(=O)c1ccc(-c2ccc(Oc3cncc4sc(-c5nn[nH]n5)cc34)cc2)cc1
Result: 90

Query: # return recorded residual activity for entry COc1ccc2c(c1)c1c3c(c4c5ccccc5n(C)c4c1n2CC(O)CN(C)C)C(=O)NC3=O (stereo not drawn)
Result: 3

Query: Report residual activity for O=C(NOC[C@H](O)CO)c1ccc(F)c(F)c1Nc1ccc(I)cc1Cl
Result: 97

Query: Let me know recorded residual activity for CN1C(=O)[C@@H](Cc2c[nH]c3ccccc23)NC1=S , thanks.
Result: 78

Query: For the compound Cn1c(=O)c2c(ncn2C)n(C)c1=O , give its measured residual activity value.
Result: 82

Query: Indicate the recorded residual activity value for this compound: CCCCCc1ccc(/C=C/[C@H](O)[C@@H](CO)NC)cc1
Result: 104

Query: Read the entry NS(=O)(=O)OC[C@@H]1C[C@@H](n2ccc3c(N[C@H]4CCc5ccccc54)ncnc32)C[C@@H]1O and write its reported residual activity.
Result: 103

Query: Assign residual activity to the following record: CN(C)C/C=C/C(=O)Nc1cccc(C(=O)Nc2ccc(Nc3nccc(-c4cccnc4)n3)cc2)c1
Result: 91

Query: Report residual activity for COc1cc(O)c2c(c1)/C=C/C[C@H](O)[C@H](O)C(=O)/C=C\C[C@H](C)OC2=O
Result: 100

Query: Specify reported residual activity for the compound shown: Cc1ccc(Sc2cnc(Nc3cccc(Br)n3)s2)cc1C(=O)N1CCN(C(=O)CN)CC1
Result: 51

Query: Fill in reported residual activity for this entry: Cc1cccc(-c2nn(C(=S)Nc3ccccc3)cc2-c2ccnc3ccccc23)n1
Result: 101

Query: Query residual activity for Cc1nc(-c2ccc(OCC(C)C)c(C#N)c2)sc1C(=O)O
Result: 94
